Test target: Steroid C26-monooxygenase (Mycobacterium tuberculosis)
Sequence (P9WPP1 whole entry): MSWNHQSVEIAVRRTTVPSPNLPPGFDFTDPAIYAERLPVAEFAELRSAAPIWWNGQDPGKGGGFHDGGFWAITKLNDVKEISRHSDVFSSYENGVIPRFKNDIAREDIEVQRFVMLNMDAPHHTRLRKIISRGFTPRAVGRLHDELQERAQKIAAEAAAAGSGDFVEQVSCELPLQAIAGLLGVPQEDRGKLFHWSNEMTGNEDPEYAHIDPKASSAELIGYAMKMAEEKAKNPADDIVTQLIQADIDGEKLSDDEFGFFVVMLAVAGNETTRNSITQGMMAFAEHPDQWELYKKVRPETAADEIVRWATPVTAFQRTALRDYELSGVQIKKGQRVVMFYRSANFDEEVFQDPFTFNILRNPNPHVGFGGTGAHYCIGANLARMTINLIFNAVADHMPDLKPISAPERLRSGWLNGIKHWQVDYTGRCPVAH
Test summary: Activity of Mycobacterium tuberculosis CYP125A1 assessed as relative apparent turnover number at 50 uM incubated for 1 hr at 25 degC by GC-MS method relative to cholesterol
Label key: class 1 means Activity under 30%; class 0 means Activity of 30% or more.

[[record]]
compound = "CC(C)CCC[C@@H](C)[C@H]1CC[C@H]2[C@@H]3CC[C@@H]4C[C@@H](O)CC[C@]4(C)[C@H]3CC[C@]12C"
test_target = "Steroid C26-monooxygenase (Mycobacterium tuberculosis)"
group_label = "class 0"

[[record]]
compound = "CC(C)=CCC[C@@H](C)[C@H]1CC[C@H]2[C@@H]3CC=C4C[C@@H](O)CC[C@]4(C)[C@H]3CC[C@]12C"
test_target = "Steroid C26-monooxygenase (Mycobacterium tuberculosis)"
group_label = "class 0"

[[record]]
compound = "CC(Br)CCC[C@@H](C)[C@H]1CC[C@H]2[C@@H]3CC=C4C[C@@H](O)CC[C@]4(C)[C@H]3CC[C@]12C (mixture of isomers)"
test_target = "Steroid C26-monooxygenase (Mycobacterium tuberculosis)"
group_label = "class 0"

[[record]]
compound = "C=CCCC[C@@H](C)[C@H]1CC[C@H]2[C@@H]3CC=C4C[C@@H](O)CC[C@]4(C)[C@H]3CC[C@]12C"
test_target = "Steroid C26-monooxygenase (Mycobacterium tuberculosis)"
group_label = "class 1"

[[record]]
compound = "CC(Cl)CCC[C@@H](C)[C@H]1CC[C@H]2[C@@H]3CC=C4C[C@@H](O)CC[C@]4(C)[C@H]3CC[C@]12C (mixture of isomers)"
test_target = "Steroid C26-monooxygenase (Mycobacterium tuberculosis)"
group_label = "class 1"

[[record]]
compound = "CCC(C)CCC[C@@H](C)[C@H]1CC[C@H]2[C@@H]3CC=C4C[C@@H](O)CC[C@]4(C)[C@H]3CC[C@]12C (mixture of isomers)"
test_target = "Steroid C26-monooxygenase (Mycobacterium tuberculosis)"
group_label = "class 0"

[[record]]
compound = "CCCCC[C@@H](C)[C@H]1CC[C@H]2[C@@H]3CC=C4C[C@@H](O)CC[C@]4(C)[C@H]3CC[C@]12C"
test_target = "Steroid C26-monooxygenase (Mycobacterium tuberculosis)"
group_label = "class 1"

[[record]]
compound = "CC(C)=CCC[C@@H](C)[C@H]1CC[C@@]2(C)C3=C(CC[C@]12C)[C@@]1(C)CC[C@H](O)C(C)(C)[C@@H]1CC3"
test_target = "Steroid C26-monooxygenase (Mycobacterium tuberculosis)"
group_label = "class 0"

[[record]]
compound = "C=C(C)CCC[C@@H](C)[C@H]1CC[C@H]2[C@@H]3CC=C4C[C@@H](O)CC[C@]4(C)[C@H]3CC[C@]12C"
test_target = "Steroid C26-monooxygenase (Mycobacterium tuberculosis)"
group_label = "class 0"

